Entries annotated with measured fold difference in affinity vs parental
experimental-system: T1, IL-1beta (UniProt P01584 117-269)
T1 construct: also called IL-1β
test: Biacore
Field: numeric (fold). Do not append units.

Consider the worked cases shown below.
GET /value?item= XPA23 Fab, heavy chain V99F (Fab, V domains shown) VH: EVQLLESGGGLVQPGGSLRLSCAASGFTFSKYFMFWVRQAPGKGLEWVSVISPSGGMTRYADSVKGRFTISRDNSKNTLYLQMNSLRAEDTAVYYCARFGYGGNSDYWGQGTLVTVSS VL: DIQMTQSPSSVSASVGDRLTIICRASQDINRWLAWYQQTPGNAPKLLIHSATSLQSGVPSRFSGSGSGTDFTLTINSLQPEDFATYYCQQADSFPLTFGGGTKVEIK &field=fold difference in affinity vs parental returns 0.03

GET /value?item= XPA23 Fab, heavy chain G56H (Fab, V domains shown) VH: EVQLLESGGGLVQPGGSLRLSCAASGFTFSKYFMFWVRQAPGKGLEWVSVISPSGHMTRYADSVKGRFTISRDNSKNTLYLQMNSLRAEDTAVYYCARVGYGGNSDYWGQGTLVTVSS VL: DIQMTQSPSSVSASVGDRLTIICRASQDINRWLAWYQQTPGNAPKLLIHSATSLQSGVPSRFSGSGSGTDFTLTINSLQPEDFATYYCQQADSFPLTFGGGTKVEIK &field=fold difference in affinity vs parental returns 0.82

GET /value?item= XPA23 Fab, heavy chain G100Y (Fab, V domains shown) VH: EVQLLESGGGLVQPGGSLRLSCAASGFTFSKYFMFWVRQAPGKGLEWVSVISPSGGMTRYADSVKGRFTISRDNSKNTLYLQMNSLRAEDTAVYYCARVYYGGNSDYWGQGTLVTVSS VL: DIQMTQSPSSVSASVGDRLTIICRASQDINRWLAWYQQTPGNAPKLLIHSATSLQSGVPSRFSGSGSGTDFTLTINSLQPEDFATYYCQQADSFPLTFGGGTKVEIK &field=fold difference in affinity vs parental returns 0.09

GET /value?item= XPA23 Fab, heavy chain M57H (Fab, V domains shown) VH: EVQLLESGGGLVQPGGSLRLSCAASGFTFSKYFMFWVRQAPGKGLEWVSVISPSGGHTRYADSVKGRFTISRDNSKNTLYLQMNSLRAEDTAVYYCARVGYGGNSDYWGQGTLVTVSS VL: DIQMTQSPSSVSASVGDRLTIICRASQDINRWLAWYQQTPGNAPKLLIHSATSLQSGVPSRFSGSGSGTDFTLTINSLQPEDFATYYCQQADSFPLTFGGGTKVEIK &field=fold difference in affinity vs parental returns 0.08

Next, consider the following binder.
GET /value?item= XPA23 Fab, heavy chain G100W (Fab, V domains shown) VH: EVQLLESGGGLVQPGGSLRLSCAASGFTFSKYFMFWVRQAPGKGLEWVSVISPSGGMTRYADSVKGRFTISRDNSKNTLYLQMNSLRAEDTAVYYCARVWYGGNSDYWGQGTLVTVSS VL: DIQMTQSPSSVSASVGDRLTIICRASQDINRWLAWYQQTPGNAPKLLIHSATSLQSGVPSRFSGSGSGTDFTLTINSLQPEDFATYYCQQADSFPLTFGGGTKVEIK &field=fold difference in affinity vs parental returns 0.05
